The entries below are paired with their reported MRT inf.
- testSummary: Oral pharmacokinetics in rats
- Assay type: in vivo
- conditionNotes: male, SD, plasma, rat, intragastric, 3 mg/kg, read-out: Average residence time MRTINF_obs
# number only, unit h dropped from output

molecule: CS(=O)(=O)N1CC=C(c2cnc(NCc3c(F)ccc4c3CCO4)n3cnnc23)CC1
recordedMeasurement: 2.06
--
molecule: Fc1ccc2c(c1CNc1ncc(C3=CCOCC3)c3nncn13)CCO2
recordedMeasurement: 5.46

Quick one: MRT inf of Fc1ccc2c(c1CNc1ncc(C3=CCCOCC3)c3nncn13)CCO2 ?
4.71

Quick one: MRT inf of CS(=O)(=O)c1ccc(-c2cnc(NCc3ccco3)n3cnnc23)cc1 [EED226, reference compound] ?
2.55

Quick one: MRT inf of Fc1ccc2c(c1CNc1ncc(C3CCOCC3)c3nncn13)CCO2 ?
4.92

====

- testSummary: Oral pharmacokinetics in rats
- Format: in vivo
- conditionNotes: male, SD, plasma, rat, intragastric, 3 mg/kg, read-out: Peak concentration Cmax
1.0 if Cmax is below 400 ng/mL. 0.0 if not; exact matches included in 0.0.

Study these solved cases before continuing.
molecule: CS(=O)(=O)c1ccc(-c2cnc(NCc3ccco3)n3cnnc23)cc1 [EED226, reference compound]
classAssignment: 0.0

molecule: Fc1ccc2c(c1CNc1ncc(C3CCOCC3)c3nncn13)CCO2
classAssignment: 0.0

molecule: Fc1ccc2c(c1CNc1ncc(C3=CCOCC3)c3nncn13)CCO2
classAssignment: 1.0

Hi there! Is Cmax for Fc1ccc2c(c1CNc1ncc(C3=CCCOCC3)c3nncn13)CCO2 below 400 ng/mL, do you know?
1.0

Hi there! Is Cmax for CS(=O)(=O)N1CC=C(c2cnc(NCc3c(F)ccc4c3CCO4)n3cnnc23)CC1 below 400 ng/mL, do you know?
1.0

====

- testSummary: Liver microsomal stability (mouse)
- Format: in vitro ADME
- conditionNotes: mouse liver microsomes
readoutName: Clearance rate in vivo Clint In Vivo Extpl (mL/min)
# number only, unit mL/min dropped from output

As a guide, the following entries are already answered.
compound: Fc1ccc2c(c1CNc1ncc(C3CCOCC3)c3nncn13)CCO2
recordedMeasurement: 1.17
//
compound: Fc1ccc2c(c1CNc1ncc(C3=CCOCC3)c3nncn13)CCO2
recordedMeasurement: 1.98
//
compound: CC(=O)N1CC=C(c2cnc(NCc3c(F)ccc4c3CCO4)n3cnnc23)CC1
recordedMeasurement: 5.51
//
compound: CC(=O)N1CCC(c2cnc(NCc3c(F)ccc4c3CCO4)n3cnnc23)CC1
recordedMeasurement: 0.921
//
compound: O=C(CN1CCOCC1)N1CC=C(c2cnc(NCc3c(F)ccc4c3CCO4)n3cnnc23)CC1
recordedMeasurement: 23.2

Quick one: Clearance rate in vivo Clint In Vivo Extpl of O=C(C1CCOCC1)N1CC=C(c2cnc(NCc3c(F)ccc4c3CCO4)n3cnnc23)CC1 ?
10.9

Quick one: Clearance rate in vivo Clint In Vivo Extpl of CN(C)CC(=O)N1CC=C(c2cnc(NCc3c(F)ccc4c3CCO4)n3cnnc23)CC1 [E-Y54] ?
3.86

Quick one: Clearance rate in vivo Clint In Vivo Extpl of CS(=O)(=O)N1CC=C(c2cnc(NCc3c(F)ccc4c3CCO4)n3cnnc23)CC1 ?
1.50

Quick one: Clearance rate in vivo Clint In Vivo Extpl of CN(C)CC(=O)N1CC=C(c2cnc(NCc3c(F)ccc4c3CCO4)n3cnnc23)CC1 [E-Y54-H] ?
1.21
